target desc: SSTR4 (Homo sapiens (Human))
Sequence (P31391 whole entry): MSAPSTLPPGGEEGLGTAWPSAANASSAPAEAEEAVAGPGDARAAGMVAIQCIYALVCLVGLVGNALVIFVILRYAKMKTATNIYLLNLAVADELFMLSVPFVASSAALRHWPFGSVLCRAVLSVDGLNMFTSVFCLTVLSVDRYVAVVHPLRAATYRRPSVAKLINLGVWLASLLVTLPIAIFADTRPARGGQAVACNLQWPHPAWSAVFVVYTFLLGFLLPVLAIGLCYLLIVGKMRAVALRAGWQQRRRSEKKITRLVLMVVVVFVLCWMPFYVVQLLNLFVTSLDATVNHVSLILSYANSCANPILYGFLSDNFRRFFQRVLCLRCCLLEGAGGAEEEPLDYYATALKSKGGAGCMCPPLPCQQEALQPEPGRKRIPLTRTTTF
protocol notes: Inhibition of forskolin stimulated cAMP in CHO-K1 cells overexpressing SSTR4
Format: cell-based
Excerpt: Inhibition of Forskolin Stimulated cAMP in Cells Overexpressing SSTR4 This cell-based assay measures the ability of compounds to inhibit forskolin stimulated cAMP in CHO-K1 cells overexpressing SSTR4. CHO-K1 cells overexpressing SSTR4 (CHO-SSTR4) are purchased from DiscoveRx (product code 95-0059C2). […] Cellular cAMP levels are detected with a HTRF LANCE Ultra cAMP kit (Perkin Elmer, catalog number TRF0264). […]
property label: SSTR4 Activity pEC50

1) Cc1cccnc1OCC(C)(C)C(=O)N[C@H]1CCN(C)C[C@@H]1F [Example 121]    6.9
2) C[C@@H]1CN(C)CC[C@H]1NC(=O)C(C)(C)COc1ccccc1Cl (relative stereo) [Example 186]    8.1
3) CN1CCC(NC(=O)C(C)(C)COc2ccccc2F)CC1 [Example 195]    6.5
4) C[C@@H]1C[C@@H](NC(=O)C(C)(C)COc2ncccc2C(F)(F)F)CCN1C [Example 177]    6.9
5) Cc1cnc(OCC(C)(C)C(=O)N[C@H]2CCN(C)C[C@@H]2F)c(C)c1 [Example 122]    6.6
6) Cc1ccccc1[C@@H]1CNCC[C@@H]1N(C)C(=O)C(C)(C)COc1ncccc1C(F)(F)F (relative stereo) [Example 156]    7.2
7) CN1CCC(NC(=O)C(C)(C)COc2ccccc2C(F)(F)F)CC1 [Example 64]    7.9
8) CN1CCC(NC(=O)C(C)(C)COc2ncccc2C(F)(F)F)C(F)C1 (stereo not drawn) [Example 113]    5.9
9) CCc1cccnc1OCC(C)(C)C(=O)NC1CCN(C)CC1 [Example 85]    7.1
10) CN1CC(NC(=O)C(C)(C)COc2ncccc2C(F)(F)F)C2(CC2)C1 (stereo not drawn) [Example 138]    8.0
11) Cc1cccnc1OCC(C)(C)C(=O)NC1CCN(C)C1 (stereo not drawn) [Example 2]    6.3
12) CCC1CC(NC(=O)C(C)(C)COc2ncccc2C(F)(F)F)CCN1C (stereo not drawn) [Example 137]    6.7
13) CN1CCC(NC(=O)C(C)(C)COc2ncccc2OC(F)(F)F)CC12CC2 (stereo not drawn) [Example 174]    7.0
14) CN1CCC(NC(=O)C(C)(C)COc2ccncc2C(F)(F)F)CC1 [Example 43]    6.9
15) CN1CCC(NC(=O)C(C)(C)COc2nccc3occc23)CC1 [Example 99]    7.1
16) Cc1cnc(OCC(C)(C)C(=O)N[C@H]2CCN(C)C[C@@H]2C)c(C)c1 [Example 141]    7.4
17) O=C(N[C@H]1CCNC[C@@H]1F)C(F)(F)COc1ncccc1OC(F)(F)F [Example 207]    8.1
18) CN1CCC(NC(=O)C(C)(C)COc2cccc(F)c2)CC1 [Example 203]    7.1
